Measured self-cleavage kobs at 2500 uM GlcN6P, listed per entry.
B1: glmS ribozyme (parent)
chain: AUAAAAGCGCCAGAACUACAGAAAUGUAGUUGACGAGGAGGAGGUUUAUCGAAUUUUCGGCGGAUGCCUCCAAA

- Variants of: B1
- experiment: self-cleavage kobs at 2500 uM GlcN6P; higher = faster cleavage; RNA array
- condition label: with glucosamine-6-phosphate
Fewer inactive variants are shown than the library holds.
Kindly provide the numeric value in s⁻¹ only, without the unit symbol.

Examples with answers:
>  <seq>
AUAAAAGCGCCAGAACUACAGAAAUGUUGUUGACGAGGAGGAGGUUUAUCGAAUUUUCGGCGGAUGCCUCCAAA [A28U]

>  <measure unit>
s⁻¹

>  <self-cleavage kobs at 2500 uM GlcN6P>
0.0144

$$$$
>  <seq>
AUAAAAGCGCUAGAACUACAGAAAUGUAGUUGACGAGGAGGAGGUUUAUCGAAUAGUCGGCGGAUGCCUCCAAA [C11U U55A U56G]

>  <measure unit>
s⁻¹

>  <self-cleavage kobs at 2500 uM GlcN6P>
0.000451

$$$$
>  <seq>
AUAAAAGCGCCAGAACUACAGAAAUGUAGUUGACGAGGUGUAGGUAUAUCGAAUUUUCGGCGGAUGCCUCCAAA [A39U G41U U46A]

>  <measure unit>
s⁻¹

>  <self-cleavage kobs at 2500 uM GlcN6P>
4.67e-05

$$$$
>  <seq>
AUAAAAGCGCCAGCACUACAGAAAUGUAGUUGACGAGGAGGAGGGUUAUCGAAUUUUCGGCGGAUGCCUCCAAA [A14C U45G]

>  <measure unit>
s⁻¹

>  <self-cleavage kobs at 2500 uM GlcN6P>
0.000606

$$$$
>  <seq>
AUAAAAGCGCCAGAUUUACAGAAAUGUAGUUGACGAGGAGGAGGUUUAUCGAAUUUUCGGCGGAUGCCUCCAAA [A15U C16U]

>  <measure unit>
s⁻¹

>  <self-cleavage kobs at 2500 uM GlcN6P>
0.000885

$$$$
>  <seq>
AUAAAAGCGCCCGAACUACAGAAAUGUAGAUGACGAGGAGGAGGUUUAUCGAAUUUUCGGCGGAUGCCUCCAAA [A12C U30A]

>  <measure unit>
s⁻¹

>  <self-cleavage kobs at 2500 uM GlcN6P>
0.0017

$$$$
>  <seq>
AUAAAAGCGCCAGAACUACAGAAAUGUAGUUGACGAGGAAGAGGUUUAUCGAAUUAUCGGCGGAUGCCUGCAAA [G40A U56A C70G]

>  <measure unit>
s⁻¹

>  <self-cleavage kobs at 2500 uM GlcN6P>
0.000135

$$$$
>  <seq>
AUAAAAGCGCCCGAACUACAGAAAUGUAGUUGACGAGGAGGAGGUUUAUCGUAUUUUCGGCGGAUGUCUCCAAA [A12C A52U C67U]

>  <measure unit>
s⁻¹

>  <self-cleavage kobs at 2500 uM GlcN6P>
0.000185

$$$$
>  <seq>
AUAAAAGCGCCAGAACUACAGAAAUGUAGUCGACGAGGAGGAGGUAUAUCGAAUUUUCGGCGGAUGCCUCCAAA [U31C U46A]

>  <measure unit>
s⁻¹

>  <self-cleavage kobs at 2500 uM GlcN6P>
0.000152

$$$$
>  <seq>
AUAAAAGCGCCUGAACUACAGAAAUGUAGUUGACGAGGAGGAGGUUUAUCGACUUUUCGGCGGAUGCCUCCAAA [A12U A53C]

>  <measure unit>
s⁻¹

>  <self-cleavage kobs at 2500 uM GlcN6P>
0.00439

$$$$

get_value(item= AUAAAAGCGCCAGAACUACAGAAAUGUAGUUGACGAGGAGGAGGUUUAUAGAAUAUUCGGCGGAUGCCUUCAAA [C50A U55A C70U] , readout=self-cleavage kobs at 2500 uM GlcN6P) returns 5.24e-05

get_value(item= AUAAAAGCGCCAGAACUACAGAAAUGUAGUUGACGAGGAGGAGGUUUAUCGAAAUUUCGGCGGAUGCCUGCAAA [U54A C70G] , readout=self-cleavage kobs at 2500 uM GlcN6P) returns 0.000176

get_value(item= AUAAAAGCGCCAGAACUACAGAAAUGUAGUUGACGAGGAGGAGGUUUAUCGAAUUUUCGGCGGAUUCCUACAAA [G66U C70A] , readout=self-cleavage kobs at 2500 uM GlcN6P) returns 8.96e-05

get_value(item= AUAAAAGCGCCAGAGCUACAGAAAUGUAGUUGACGAGGAGGAGGUUUAUCGAAUUUUCGGCGGAUGGCUCCAAA [A15G C67G] , readout=self-cleavage kobs at 2500 uM GlcN6P) returns 0.000654

get_value(item= AUAAAAGCGCCAGGACUACAGAAAUGUAGUUGACGAGGAGGAGGUUUAUCGAAUUAUCGGCGGAUGACUCCAAA [A14G U56A C67A] , readout=self-cleavage kobs at 2500 uM GlcN6P) returns 0.00817

get_value(item= AUAAAAGCGCCAGAACUACAGAAAUGUAGUUGACGAGGAGGAGGUUCAUCGAAUUUUCGGCGGAGGCCUCCAAA [U47C U65G] , readout=self-cleavage kobs at 2500 uM GlcN6P) returns 0.00189
